Recorded z-score by entry
# assayName: modulators of HCV replicon luciferase signal, primary screen, HCV replication inhibitor project, Huh7 cells, luciferase reporter (AID 1109);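 also: huh7 hepatoma cells harbouring a luciferase neomycin HCV replicon reporter; luciferase luminescence as measure of HCV replicon replication; test concentration not given here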
# statedConditions: 48 h, higher = more signal
parameter: z-score

CN1C(=O)C2C=CC(C(O)c3ccc([N+](=O)[O-])cc3)N(N3CCCCC3)C2C1=O (configuration not stated) = 0.702
CN1C=C(C(=O)OCCS(C)(=O)=O)C(C(=O)OCCS(C)(=O)=O)=CC(c2ccc(CO)cc2)=CC1C1CC1 (configuration not stated) = -0.595
COC(=O)[C@@]1(Cc2ccc(OC)cc2)[C@H]2c3cc(C(=O)N4CCCC4)n(Cc4ccc(C)c(F)c4F)c3C[C@H]2CN1C(=O)c1ccccc1 = -2.34
NCCCCCCNC(=O)[C@@H]1C[C@@H]2C(=O)NCC(=O)N2[C@@H]1c1ccc(O)cc1 = 0.279
COCCOC(=O)N1C(=O)[C@@]2(c3cc(C#CCC(C(=O)OC)C(=O)OC)ccc31)[C@H](c1ccccc1OCCO)N1[C@H](c3ccccc3)[C@H](c3ccccc3)OC(=O)[C@H]1[C@@H]2C(=O)N1CCN(c2ncccn2)CC1 = -1.99
CC(=O)n1cc(C(O)C2C=CC3C(=O)N(c4ccccc4)C(=O)C3N2Nc2ccc([N+](=O)[O-])cc2)c2ccccc21 (configuration not stated) = -0.0176
C[N+](C)(C)CCCCNC(=O)[C@@H]1C[C@@H]2C(=O)N[C@@H](Cc3ccccc3)C(=O)N2[C@@H]1c1cccc(OCCO)c1 = -0.759

---

Recorded composite z-score by entry
# assayName: binders of probe aHhip on microarray, primary screen, stem cell growth factor project, biochemical, small-molecule microarray, fluorescence 635/667 (AID 1087);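 also: score merges spot fluorescence at 667nm with spot signal to noise ratio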
# statedConditions: higher = more signal
parameter: composite z-score

O=C1C[C@@](C(=O)NCCN2CCOCC2)(c2ccc([N+](=O)[O-])cc2)[C@@H](c2ccc(CO)cc2I)N1CC12CC3CC(CC(C3)C1)C2 = 0.192
C[N+](C)(C)CCCCNC(=O)[C@@H]1C[C@@H]2C(=O)N[C@@H](Cc3ccccc3)C(=O)N2[C@@H]1c1cccc(OCCO)c1 = -0.195
COC(=O)[C@@]1(Cc2ccc(OC)cc2)[C@H]2c3cc(C(=O)N(C)C)n(Cc4ccccn4)c3C[C@H]2CN1C(=O)c1ccccc1 = 0.408
CCN(CC)c1ccc(N2CC=CC34O[C@@H]5C=CCCOC(=O)C5[C@H]3C(=O)N(CCCCCCO)[C@@H]4C2=O)cc1 (stereo partly drawn) = -0.249
COC(=O)[C@@]1(Cc2ccc(OC)cc2)[C@H]2c3cc(C(=O)N(C)C)n(C)c3C[C@H]2CN1C(=O)c1ccccc1 = 0.658
CC(C)N1C(=O)C[C@@](C(=O)NCC(F)(F)F)(c2ccc([N+](=O)[O-])cc2)[C@H]1c1ccc(CO)cc1 = -0.0994
COCCOC(=O)N1C(=O)[C@@]2(c3cc(C#CCC(C(=O)OC)C(=O)OC)ccc31)[C@H](C(=O)N1CCN(c3ncccn3)CC1)[C@H]1C(=O)O[C@H](c3ccccc3)[C@H](c3ccccc3)N1[C@@H]2c1ccccc1OCCO = -0.0346
NC(=O)NCC#Cc1ccc2c(c1)[C@]1(C(=O)N2)[C@H](c2ccc(O)cc2)N2[C@H](c3ccccc3)[C@H](c3ccccc3)OC(=O)[C@H]2[C@@H]1C(=O)O = -0.457
COCCOC(=O)N1C(=O)[C@@]2(c3cc(C#CCC(C(=O)OC)C(=O)OC)ccc31)[C@H](c1ccccc1OCCO)N1[C@H](c3ccccc3)[C@H](c3ccccc3)OC(=O)[C@H]1[C@@H]2C(=O)NC[C@H](O)c1ccccc1 = 0.152
CN1C(=O)C2C=CC(C(O)c3ccc([N+](=O)[O-])cc3)N(N3CCCCC3)C2C1=O (stereo not drawn) = -0.365
COC(=O)[C@@]1(Cc2ccccc2)[C@H]2c3cc(C(=O)N(C)C)n(Cc4ccsc4Br)c3C[C@H]2CN1C(=O)c1ccccc1 = -0.113
C[C@@]1([C@@H](NC(=O)c2ccc(-c3ccccc3)cc2)c2ccc(Cl)cc2)C[C@H]1C1CCCCC1 = 0.133
CN1C(=O)C2C=CC(C(O)c3ccccc3)N(N(c3ccccc3)c3ccccc3)C2C1=O (stereo not drawn) = 0.245
C=C(CCCC)/C(=C/C[C@H](OC(C)=O)c1ccccc1OCCO)c1cc(C(=O)OC)ccc1OC = -0.134
Cc1ccccc1C(O)C1C=CC2C(=O)N(c3ccccc3)C(=O)C2N1Nc1ccc(C(C)C)cc1 (stereo not drawn) = 0.142
COc1ccc(CCNC(=O)[C@@]2(C)c3ccccc3C(=O)N(C(C)C)[C@H]2c2ccc(CO)cc2)cc1 = -0.394
O=C(NCCO)C1=C[C@H](Oc2ccccc2I)[C@@H](O)[C@H](N(Cc2ccco2)C(=O)Cc2ccccc2)C1 = 0.12
CNS(=O)(=O)c1ccc(C)cc1 = -0.0346
O=C1NC(=O)C2C1C=CC(C(O)c1cccs1)N2Nc1ccc(Cl)cc1Cl (stereo not drawn) = -0.191
COCCOC(=O)N1C(=O)[C@@]2(c3cc(C#CCNC(N)=O)ccc31)[C@H](C(=O)N1CCN(c3ncccn3)CC1)[C@H]1C(=O)O[C@H](c3ccccc3)[C@H](c3ccccc3)N1[C@@H]2c1ccc(OCCO)cc1 = 0.0939
CCCC[C@H]1OB(O)C[C@H]2C1=C(COC)Cn1c(=O)n(-c3ccccc3)c(=O)n12 = -0.236
COC(=O)C(CC#Cc1ccc2c(c1)[C@]1(C(=O)N2)[C@H](c2ccc(OCCO)cc2)N2[C@H](c3ccccc3)[C@H](c3ccccc3)OC(=O)[C@H]2[C@@H]1C(=O)Nc1nc2ccccc2s1)C(=O)OC = 0.0156
CC1CC/C=C\[C@H]2OC34C=CCN(Cc5ccccc5)C(=O)[C@H]3N(CCCO)C(=O)[C@@H]4C2C(=O)O1 (stereo partly drawn) = -0.0645
COCCOC(=O)N1C(=O)[C@@]2(c3ccccc31)[C@H](c1ccc(O)cc1)N1[C@H](c3ccccc3)[C@H](c3ccccc3)OC(=O)[C@H]1[C@@H]2C(=O)Nc1nc2ccccc2s1 = 0.0139
COC(=O)[C@@]1(Cc2ccc(OC)cc2)[C@H]2c3cc(C(=O)N4CCCC4)n(Cc4ccc(C)c(F)c4F)c3C[C@H]2CN1C(=O)c1ccccc1 = 2.12
Cc1ccc(S[C@]2(C(=O)NCCCN(C)C)CC(=O)N(Cc3ccccc3C(F)(F)F)[C@@H]2c2ccc(CO)cc2)cc1 = -0.0994
[N-]=[N+]=Nc1ccccc1[C@H]1OC(c2ccc(OCCCO)cc2)=N[C@@]1(CCS(=O)(=O)c1ccccc1)C(=O)NCC(O)CO (stereo partly drawn) = -0.283
CC1(C)[C@@H]2CC(C(O)C3C=CC4C(=O)N(Cc5ccccc5)C(=O)C4N3n3cnnc3)=C[C@H]1C2 (stereo partly drawn) = 0.0053

---

# assayName: small-molecule microarray binders of probe aDKK1, primary screen, biochemical, biotinylated probe, 635/667 nm fluorescence (AID 1099);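 also: score merges 667nm spot fluorescence with signal to noise across triplicate slides; reference of the scale not given here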
# statedConditions: higher = more signal
Recorded composite z-score by entry
parameter: composite z-score

O=C1C2C=CC(C(O)c3cccc4ccccc34)N(Nc3ccccc3F)C2C(=O)N1c1ccccc1 (stereo not given) = 0.977
COC(=O)C(CC#Cc1ccc2c(c1)[C@]1(C(=O)N2)[C@H](C(=O)Nc2nc3ccccc3s2)[C@H]2C(=O)O[C@H](c3ccccc3)[C@H](c3ccccc3)N2[C@@H]1c1ccccc1OCCO)C(=O)OC = 0.473
C[C@H]1NC(=O)[C@@]23C(=O)N[C@@H](Cc4ccccc4)C2[C@H](C)[C@@]2(C)O[C@H]2C3/C=C/C/C=C\CNC(=O)[C@@H]2CCCN2C1=O (stereo not given in full) = -0.192
C=C(COC)/C(=C/C[C@@H](OC(C)=O)c1ccc(OCCO)cc1)c1cnc2ccccc2c1 = -0.151
CCCC[C@@H]1C[C@H]1[C@@H](NC(=O)c1ccco1)c1ccc(-c2ccccc2)cc1 = 0.189

---

# assayName: A549 cell viability effects, profiling panel, calcein-AM fluorescence, 48 h, basal (AID 1162); also: test concentration not given here
# statedConditions: higher = more signal
Please mark met if the recorded z-score is equal to or greater than -0.2, and not met if it falls below.

O=C1O[C@@H](c2ccccc2)[C@@H](c2ccccc2)N2[C@@H](c3ccccc3OCCO)[C@]3(C(=O)Nc4ccccc43)[C@@H](C(=O)Nc3nc4ccccc4s3)[C@H]12 = not met
C=C(COC)/C(=C/C[C@@H](OC(C)=O)c1ccc(OCCO)cc1)c1cnc2ccccc2c1 = met
C=C(/C(=C/C[C@H](OC(C)=O)c1ccccc1OCCO)c1cnc2ccccc2c1)C(C)C = met
CN(C)C(=O)[C@@]1(CCS(=O)(=O)c2ccccc2)COC(c2ccc(OCCCO)cc2)=N1 = not met
[N-]=[N+]=Nc1ccccc1[C@H]1OC(c2ccc(OCCCO)cc2)=N[C@@]1(CCS(=O)(=O)c1ccccc1)C(=O)NCC(O)CO (stereo partly drawn) = met
COc1cccc(-c2cccc(=O)o2)c1 = not met
COC(=O)c1c(CC[C@@H](CO)NC(=O)NCCn2cc(C3(O)CCCC3)nn2)oc(C(C)=O)c1C(=O)OC = not met
C=CCN1C(=O)[C@]2(O[C@H](CCn3cc([C@H](O)c4ccccc4)nn3)[C@@H]([Si](C)(C)c3ccc(OC)cc3)[C@@H]2C)c2cc(N3CCC3=O)ccc21 = not met

Where these numbers come from: PubChem BioAssay
